Test: Metabolic stability in human liver microsomes assessed as half life
Type: ADME, Microsome
Details: microsomes
measurement_name: t1/2

Worked cases, t1/2 given:
{"smiles": "NC(=O)c1ccc(Oc2ccc(CNCCc3ccccc3)cc2)cc1", "t1/2": "> 2.42 h"}
{"smiles": "C=C1CC[C@@]2(O)[C@H]3Cc4ccc(O)c5c4[C@@]2(CCN3CC2CC2)[C@H]1O5", "t1/2": "> 2.42 h"}
{"smiles": "COc1cc(CNCCc2ccccc2)ccc1Oc1ccc(C(N)=O)cn1", "t1/2": "> 2.42 h"}
{"smiles": "NC(=O)c1ccc(Oc2ccc(CNCCc3ccccc3)cc2)nc1", "t1/2": "> 2.42 h"}
{"smiles": "COc1cc(CNCCC(C)C)ccc1Oc1ccc(C(N)=O)cn1", "t1/2": "> 2.42 h"}

Now for a further compound.
t1/2 measured on NC(=O)c1ccc(Oc2ccc(CNCCc3ccccc3)cc2Cl)nc1 = 1.837 h

---

Target: Cytochrome P450 2D6 (Homo sapiens, UniProt P10635)
Sequence (P10635 whole entry): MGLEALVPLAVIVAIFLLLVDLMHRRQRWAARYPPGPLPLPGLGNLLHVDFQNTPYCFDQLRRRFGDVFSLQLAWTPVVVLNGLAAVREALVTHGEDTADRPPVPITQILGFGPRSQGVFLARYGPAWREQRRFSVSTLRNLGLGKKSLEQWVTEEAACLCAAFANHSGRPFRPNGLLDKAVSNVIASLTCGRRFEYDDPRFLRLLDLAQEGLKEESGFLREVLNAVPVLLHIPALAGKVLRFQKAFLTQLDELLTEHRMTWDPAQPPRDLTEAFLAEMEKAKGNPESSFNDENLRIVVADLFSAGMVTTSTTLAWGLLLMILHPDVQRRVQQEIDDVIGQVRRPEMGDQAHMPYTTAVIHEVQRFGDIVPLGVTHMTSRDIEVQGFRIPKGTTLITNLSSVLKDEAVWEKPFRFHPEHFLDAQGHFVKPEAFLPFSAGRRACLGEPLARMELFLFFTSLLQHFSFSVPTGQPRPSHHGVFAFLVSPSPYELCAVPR
Assay: Inhibition of CYP2D6 in human liver microsomes at 10 uM relative to control
Type: ADME, Microsome
Details: microsomes, 10 µM
Classify as follows. Reported inhibition (INH) greater than or equal to 50%: Criterion met. Reported inhibition (INH) below: Criterion not met.

# count of solved cases: 5
{"smiles": "NC(=O)c1ccc(Oc2ccc(CNCCc3ccccc3)cc2Cl)nc1", "group": "Criterion not met"}
{"smiles": "NC(=O)c1ccc(Oc2ccc(CNCCc3ccccc3)cc2)nc1", "group": "Criterion met"}
{"smiles": "NC(=O)c1ccc(Oc2ccc(CNCCc3ccccc3)cc2)cc1", "group": "Criterion met"}
{"smiles": "COc1cc(CNCCc2ccccc2)ccc1Oc1ccc(C(N)=O)cn1", "group": "Criterion met"}
{"smiles": "C=C1CC[C@@]2(O)[C@H]3Cc4ccc(O)c5c4[C@@]2(CCN3CC2CC2)[C@H]1O5", "group": "Criterion met"}

Kindly review the next molecule as well.
Data request: Does the reported inhibition (INH) for COc1cc(CNCCC(C)C)ccc1Oc1ccc(C(N)=O)cn1 fall at or above the 50% mark?
Data returned: Criterion not met

---

Examples of molecules with documented half-life follow.
Experiment: Half life in Sprague-Dawley rat plasma at 2 mg/kg, ip by LC-MS/MS analysis
Type: ADME, organism-based
Lab book: enter the figure in min, no units written.

Looking up Cl.NC(=O)c1ccc(Oc2ccc(CNCCc3ccccc3)cc2)nc1 , I see its half-life listed as 20.9

The molecule identified as C=CCN1CC[C@]23c4c5ccc(O)c4O[C@H]2C(=O)CC[C@@]3(O)[C@H]1C5 registered its half-life at 20.9

---

Target: Sodium-dependent dopamine transporter (Homo sapiens, UniProt Q01959)
Sequence (Q01959 whole entry): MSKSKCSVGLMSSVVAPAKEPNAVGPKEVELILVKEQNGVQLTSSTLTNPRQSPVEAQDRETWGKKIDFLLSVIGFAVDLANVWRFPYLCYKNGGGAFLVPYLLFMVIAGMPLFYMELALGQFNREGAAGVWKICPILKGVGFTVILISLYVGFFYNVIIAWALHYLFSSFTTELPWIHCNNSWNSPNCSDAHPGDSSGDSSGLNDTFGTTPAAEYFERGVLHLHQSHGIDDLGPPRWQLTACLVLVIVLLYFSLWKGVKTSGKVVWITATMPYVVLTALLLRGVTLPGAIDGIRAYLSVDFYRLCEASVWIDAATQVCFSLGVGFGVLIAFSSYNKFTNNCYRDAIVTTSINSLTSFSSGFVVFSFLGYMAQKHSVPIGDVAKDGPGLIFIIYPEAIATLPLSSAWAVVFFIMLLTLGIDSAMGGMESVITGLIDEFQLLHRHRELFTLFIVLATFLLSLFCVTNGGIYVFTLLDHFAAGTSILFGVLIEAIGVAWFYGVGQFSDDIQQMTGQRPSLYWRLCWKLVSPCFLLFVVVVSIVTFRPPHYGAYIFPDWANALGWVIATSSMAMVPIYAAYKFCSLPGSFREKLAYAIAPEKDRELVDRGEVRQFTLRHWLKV
Experiment: Inhibition of Dopamine transporter (unknown origin)
measurement_name: IC50 (µM)
// units = µM; emit number, no label

The value of IC50 measured for the molecule NC(=O)c1ccc(Oc2ccc(CNCCc3ccccc3)cc2)nc1 turned out to be 3.02

---

Assay: Metabolic stability in human liver microsomes assessed as half life
Format: ADME, Microsome
Settings: liver microsomes
measurement_name: half-life (min)
Provide only the numeric value, understood in min.

# half-life of C[C@H]1CN(CC[C@H](O)C2CCCCC2)CC[C@@]1(C)c1cccc(O)c1 = 6.4
